These data points were gathered from ChEMBL document CHEMBL1155883.

# Test system: Human immunodeficiency virus 1
# Test description: Antiviral activity against HIV1 NL4-3 in human MT4 cells assessed as inhibition of virus-induced cytopathogenicity by MTT assay
# Type: functional, organism-based
# Measurement conditions: Human immunodeficiency virus 1, NL4-3, MT4
Reported EC50 values are given for each entry in this list.

COc1ccc(CCSc2nc(Cc3c(Cl)cccc3Cl)c(C)c(=O)[nH]2)cc1 | < 0.14 nM
CCc1c(Cc2c(F)cccc2Cl)nc(SCC(=O)c2ccc(OC)cc2)[nH]c1=O | 20 nM
COc1ccc(C(=O)CSc2nc(Cc3c(F)cccc3Cl)c(C)c(=O)[nH]2)cc1 | 200 nM
CCc1c(Cc2c(Cl)cccc2Cl)nc(SCC(=O)c2ccccc2)[nH]c1=O | 7 nM
CC(C)c1c(Cc2c(F)cccc2F)nc(SCC(=O)c2ccc(F)cc2)[nH]c1=O | 5 nM

Consider the compound shown here: Cc1c(Cc2c(F)cccc2F)nc(SCC(=O)c2ccccc2)[nH]c1=O What is its recorded EC50?
15 nM

Here is the next compound: Cc1c(Cc2c(F)cccc2Cl)nc(SCC(=O)c2ccc(F)cc2)[nH]c1=O
2 nM
